# target-system: human orexin type 2 receptor (hOX2R) (Homo sapiens, UniProt O43614)
# Construct: expressed in transfected cells
# Sequence (O43614 1-444): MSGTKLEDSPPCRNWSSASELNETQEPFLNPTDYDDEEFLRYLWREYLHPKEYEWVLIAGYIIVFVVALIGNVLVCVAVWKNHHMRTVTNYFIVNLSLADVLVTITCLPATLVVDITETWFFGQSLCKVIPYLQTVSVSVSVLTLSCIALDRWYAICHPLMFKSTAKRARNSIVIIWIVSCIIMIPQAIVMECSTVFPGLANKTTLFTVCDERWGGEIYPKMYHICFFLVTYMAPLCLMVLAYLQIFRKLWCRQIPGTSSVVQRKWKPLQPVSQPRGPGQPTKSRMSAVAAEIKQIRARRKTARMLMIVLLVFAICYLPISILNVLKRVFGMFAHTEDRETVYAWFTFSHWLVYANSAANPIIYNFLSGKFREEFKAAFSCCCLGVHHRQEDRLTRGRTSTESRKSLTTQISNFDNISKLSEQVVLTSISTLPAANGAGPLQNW
# experiment: Measurement of orexin type 2 receptor agonist activity (FLIPR calcium fluorescence)
# Format: cell-based
# assay-setup: CHO cells expressing hOX2R, FLIPR calcium fluorescence; read-out: hOx2 pEC50 (converted)
experimental-readout: EC50

Consider the following illustrative entries.
>  <molecule>
O=C([C@H]1C[C@@H](F)C1)N1CC2(CC2)[C@H](NS(=O)(=O)CF)[C@@H]1Cc1cccc(-c2ccccc2)c1F [Compound 189]

>  <EC50>
1 to 10 nM

$$$$
>  <molecule>
N#C[C@@]1(C(=O)N2CC3(CC3)[C@H](NS(=O)(=O)CF)[C@@H]2Cc2cccc(-c3ccccc3)c2F)CCO1 (single isomer, unassigned) [Compound 225]

>  <EC50>
1 to 10 nM

$$$$
>  <molecule>
CCN(C)C(=O)N1CC2(CC2)[C@H](NS(C)(=O)=O)[C@@H]1Cc1cccc(-c2ccccc2)c1F [Compound 88]

>  <EC50>
0.0794 to 1 nM

$$$$
>  <molecule>
CN(C)S(=O)(=O)N[C@@H]1[C@H](Cc2cc(F)cc(-c3cccc(F)c3)c2F)N(C(=O)[C@H]2CCO2)CC12CC2 [Compound 124]

>  <EC50>
0.0794 to 1 nM

$$$$
>  <molecule>
O=C([C@H](O)CF)N1CC2(CC2)[C@H](NS(=O)(=O)C(F)F)[C@@H]1Cc1cccc(-c2cc(F)cc(F)c2)c1F [Compound 392]

>  <EC50>
0.0794 to 1 nM

$$$$
>  <molecule>
O=C(NC(CF)CF)N1CC2(CC2)[C@H](NS(=O)(=O)CF)[C@@H]1Cc1cccc(-c2ccccc2)c1F [Compound 369]

>  <EC50>
1 to 10 nM

$$$$
>  <molecule>
CC[C@@H](O)C(=O)N1CC2(CC2)[C@H](NS(C)(=O)=O)[C@@H]1Cc1cccc(-c2ccccc2)c1 (racemic) [Compound 300]

>  <EC50>
10 to 100 nM

$$$$
>  <molecule>
O=C([C@H]1CCO1)N1CC2(CC2)[C@H](NS(=O)(=O)C(F)F)[C@@H]1Cc1cccc(-c2cc(F)cc(F)c2)c1F [Compound 175]

>  <EC50>
0.0794 to 1 nM

$$$$

Notebook: C[C@@H](NC(=O)N1CC2(CC2)[C@H](NS(=O)(=O)CF)[C@@H]1Cc1cccc(-c2ccccc2)c1F)C(F)F [Compound 219] , EC50 read as 1 to 10 nM

Notebook: CCS(=O)(=O)N[C@@H]1[C@H](Cc2cccc(-c3ccccc3)c2F)N(C(=O)[C@H](O)CF)CC12CC2 [Compound 178] , EC50 read as 1 to 10 nM

Notebook: COC(=O)N1CCC2(CC2)C(NS(C)(=O)=O)C1Cc1cccc(-c2ccccc2)c1 (racemic) [Compound 14] , EC50 read as > 1000 nM

Notebook: CC(C)S(=O)(=O)N[C@@H]1[C@H](Cc2cccc(-c3cc(F)cc(F)c3)c2F)N(C(=O)[C@H]2CCO2)CC12CC2 [Compound 222] , EC50 read as 0.0794 to 1 nM

Notebook: O=C([C@H]1CCO1)N1CC2(CC2)[C@H](NS(=O)(=O)CF)[C@@H]1Cc1cccc(-c2cc(F)ccc2F)c1F [Compound 169] , EC50 read as 1 to 10 nM
